Measured values drawn from patent US20260209376A1 for this set.

# assayed_target: TfR1 (antigen; form in the assay not stated) (human, UniProt P02786 89-760, limits assumed)
# Sequence (P02786 89-760 limits assumed): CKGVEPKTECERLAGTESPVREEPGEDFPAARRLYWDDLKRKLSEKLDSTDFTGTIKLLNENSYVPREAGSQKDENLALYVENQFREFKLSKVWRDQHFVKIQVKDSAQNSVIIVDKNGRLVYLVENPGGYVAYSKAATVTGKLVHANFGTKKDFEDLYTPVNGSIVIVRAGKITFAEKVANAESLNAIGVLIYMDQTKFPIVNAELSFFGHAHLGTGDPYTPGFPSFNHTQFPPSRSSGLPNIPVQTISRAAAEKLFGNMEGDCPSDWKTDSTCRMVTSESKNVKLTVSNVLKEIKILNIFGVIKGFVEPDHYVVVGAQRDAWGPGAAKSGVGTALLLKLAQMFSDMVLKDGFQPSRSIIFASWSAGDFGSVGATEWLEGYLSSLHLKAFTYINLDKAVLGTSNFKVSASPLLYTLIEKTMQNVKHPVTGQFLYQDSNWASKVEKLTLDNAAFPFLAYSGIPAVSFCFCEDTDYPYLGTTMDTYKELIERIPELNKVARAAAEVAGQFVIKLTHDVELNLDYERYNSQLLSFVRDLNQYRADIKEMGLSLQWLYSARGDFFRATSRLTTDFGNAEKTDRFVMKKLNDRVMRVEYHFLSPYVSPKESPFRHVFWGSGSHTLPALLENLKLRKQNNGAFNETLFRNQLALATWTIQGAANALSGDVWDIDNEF
# measurement_description: assay not named in the sentence (ELISA and flow cytometry per paragraph 218)

- binder: "H8L3 (antibody, human IgG1, V domains shown, humanized; also called hu128.1) VH: QVQLVESGGGVVQPGRSLRLSCAASGYSFTGYTMNWVRQAPGNGLEWVARINPHNGGTDYNQKFKDRFTISRDNSKNTLYLQMNSLRAEDTAVYYCARGYYYYSLDYWGQGTTVTVSS VL: EIVLTQSPDFQSVTPKEKVTITCSASSSIRYIHWYQQRPDQSPKLLIYDTSNLASGVPSRFSGSGSGTDFTLTINSLEAEDAATYYCHQRNSYPWTFGQGTKVEIK"
  binding result: "no binding"
- binder: "H8L1 (antibody, human IgG1, V domains shown, humanized; also called hu128.1) VH: QVQLVESGGGVVQPGRSLRLSCAASGYSFTGYTMNWVRQAPGNGLEWVARINPHNGGTDYNQKFKDRFTISRDNSKNTLYLQMNSLRAEDTAVYYCARGYYYYSLDYWGQGTTVTVSS VL: EIVLTQSPATLSLSPGERATLSCSASSSIRYIHWYQQKPGQAPRLLIYDTSNLASGTPARFSGSGSGTDFTLTISSLEPEDFAVYYCHQRNSYPWTFGQGTKVEIK"
  binding result: "no binding"
- binder: "H8L2 (antibody, human IgG1, V domains shown, humanized; also called hu128.1) VH: QVQLVESGGGVVQPGRSLRLSCAASGYSFTGYTMNWVRQAPGNGLEWVARINPHNGGTDYNQKFKDRFTISRDNSKNTLYLQMNSLRAEDTAVYYCARGYYYYSLDYWGQGTTVTVSS VL: EIVLTQSPATLSVSPGERATLSCSASSSIRYIHWYQQRPGQAPRLLIYDTSNLASGTPARFSGSGSGTDFTLTISSLEPEDFAVYYCHQRNSYPWTFGQGTKVEIK"
  binding result: "no binding"
- binder: "H8L4 (antibody, human IgG1, V domains shown, humanized; also called hu128.1) VH: QVQLVESGGGVVQPGRSLRLSCAASGYSFTGYTMNWVRQAPGNGLEWVARINPHNGGTDYNQKFKDRFTISRDNSKNTLYLQMNSLRAEDTAVYYCARGYYYYSLDYWGQGTTVTVSS VL: EIVLTQSPATLSVSPGERATLSCSASSSIRYIHWYQQRPGQAPRLLIYDTSNLASGIPARFSGSGSGTDFTLTISSLEPEDFAVYYCHQRNSYPWTFGPGTKVDIK"
  binding result: "no binding"
